# Organism: Homo sapiens
# PROTOCOL DETAILS: Selectivity for human ERalpha over ERbeta

- COMPOUND SMILES: "Oc1ccc2c(c1)OCc1c-2nc2ccc(O)cc2c1Br"
  Ratio IC50: 16
- COMPOUND SMILES: "C#Cc1c2c(nc3ccc(O)cc13)-c1ccc(O)cc1OC2"
  Ratio IC50: 12
- COMPOUND SMILES: "C#Cc1cc(-c2ccc(O)cc2)nc2ccc(O)cc12"
  Ratio IC50: 20
- COMPOUND SMILES: "Oc1ccc2c(c1)OCc1c-2nc2ccc(O)cc2c1-c1cccc(Cl)c1"
  Ratio IC50: 4
- COMPOUND SMILES: "N#Cc1cccc(-c2c3c(nc4ccc(O)cc24)-c2ccc(O)cc2OC3)c1"
  Ratio IC50: 8
- COMPOUND SMILES: "N#Cc1c2c(nc3ccc(O)cc13)-c1ccc(O)cc1OC2"
  Ratio IC50: 16
- COMPOUND SMILES: "Oc1ccc2c(c1)OCc1c-2nc2ccc(O)cc2c1-c1ccc(C(F)(F)F)cc1"
  Ratio IC50: 16
- COMPOUND SMILES: "Oc1ccc2c(c1)OCc1c-2nc2ccc(O)cc2c1Cl"
  Ratio IC50: 27
- COMPOUND SMILES: "N#Cc1ccc(-c2c3c(nc4ccc(O)cc24)-c2ccc(O)cc2OC3)cc1"
  Ratio IC50: 16
- COMPOUND SMILES: "Oc1ccc(-c2cc(Cl)c3cc(O)ccc3n2)cc1"
  Ratio IC50: 46
- COMPOUND SMILES: "C=Cc1c2c(nc3ccc(O)cc13)-c1ccc(O)cc1OC2"
  Ratio IC50: 24
- COMPOUND SMILES: "Oc1ccc2c(c1)OCc1c-2nc2ccc(O)cc2c1-c1ccc(Cl)cc1"
  Ratio IC50: 15
- COMPOUND SMILES: "COc1ccc(-c2c3c(nc4ccc(O)cc24)-c2ccc(O)cc2OC3)cc1"
  Ratio IC50: 6
- COMPOUND SMILES: "CCc1cc(-c2ccc(O)cc2)nc2ccc(O)cc12"
  Ratio IC50: 12
- COMPOUND SMILES: "CCc1c2c(nc3ccc(O)cc13)-c1ccc(O)cc1OC2"
  Ratio IC50: 14
- COMPOUND SMILES: "COc1cccc(-c2c3c(nc4ccc(O)cc24)-c2ccc(O)cc2OC3)c1"
  Ratio IC50: 10
